target.entity: T1, human CD70 (human, UniProt P32970 1-193)
T1 construct: also called hu CD70; CD27L
T1 sequence: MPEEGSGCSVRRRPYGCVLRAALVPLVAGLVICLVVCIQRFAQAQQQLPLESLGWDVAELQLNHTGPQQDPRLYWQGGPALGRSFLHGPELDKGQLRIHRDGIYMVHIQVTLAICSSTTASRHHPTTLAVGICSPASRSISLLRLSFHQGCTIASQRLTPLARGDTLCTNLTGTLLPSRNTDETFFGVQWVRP
protocol: FACS on CHO cells, periplasmic scFv

>  <binder>
CD70-61 (scFv, As m32) scFv: EVQLLESGGGLVQPGGSLRLSCAASGFTFSSYAMSWVRQAPGKGLEWVSVISDSGGITDFADSVKGRFTISRDNSRNTLYLQMNSLRAEDTAVYFCARHDYSNYFFFDYWGQGTLVTVSSGGGGSGGGGSGGGGSDIQMTQSPSSLSASVGDRITITCRASQSISNYLNWYQQKPGKAPKLLISAASSLQSGVPSRFSGSGSGTDFTLTISSLQPEDFATYYCQQSYIIPPTFGQGTKVDIK

>  <binding result>
binds

$$$$
>  <binder>
CD70-12 (scFv, As m32) scFv: QAQLVESGGGVVQPGRSLRLSCAASGFTFSYYGMHWVRQAPGKCLEWVAVIWYDGSNKYYADSVKGRFTISRDNSKNTLYLQMNSLRAEDTAVYYCARDREMGSRGDFDYWGQGTLVTVSSGGGGSGGGGSGGGGSDIQMTQSPSSLSASVGDRVTITCRASQGINNYLAWFQQKPGKAPKSLIYAVSILQSGVPSKFSGSGSGTDFTLTIGNLQPEDFATYYCQQYNFYPFSFGCGTKVDIK

>  <binding result>
binds

$$$$
>  <binder>
CD70-71 (scFv, As m32) scFv: QVQLVESGGGVVQPGRSLRLSCAASGFTFSSYGMHWVRQAPGKCLEWVAVISYDGSNKYYADSVKGRFTISRDNSKNTLYLQMNSLRAEDTAVYYCARGRYYGSGSYNYGMDVWGQGTTVTVSSGGGGSGGGGSGGGGSDIQMTQSPSSLSASVGDRVTITCRASQSIFDYLNWYQQKPGKAPKLLIYAASSLQSGVPSRFSGSGFGTDFTLTISSLQPEDFATYYCQQSYSTPLTFGCGTKLEIK

>  <binding result>
binds

$$$$
